Where do these numbers come from? They come from patent US8778932B2.

target: HEK-293 cells stably expressing the subunit α5 of the human GABAA receptor, and also the subunits beta2 (short) and gamma2 (long) (Homo sapiens (Human), UniProt P18507+P31644+P47870); experiment: GABAA receptor activity study (membrane potential, FMP marker, FlexStation3); conditions: 40 min preincubation, then GABA, read-out: alpha5 IC50
Sequence (P31644 32-462): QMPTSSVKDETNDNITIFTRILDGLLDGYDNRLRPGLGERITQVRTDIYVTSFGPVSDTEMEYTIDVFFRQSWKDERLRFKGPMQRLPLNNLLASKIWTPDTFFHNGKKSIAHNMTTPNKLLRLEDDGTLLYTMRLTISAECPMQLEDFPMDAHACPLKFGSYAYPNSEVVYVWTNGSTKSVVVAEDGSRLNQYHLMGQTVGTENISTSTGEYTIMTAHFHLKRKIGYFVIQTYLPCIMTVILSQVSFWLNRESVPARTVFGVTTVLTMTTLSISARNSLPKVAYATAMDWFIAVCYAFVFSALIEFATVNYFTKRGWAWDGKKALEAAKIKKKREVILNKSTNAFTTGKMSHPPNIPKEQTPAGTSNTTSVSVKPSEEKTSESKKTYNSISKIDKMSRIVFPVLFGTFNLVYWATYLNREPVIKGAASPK
Sequence (P47870 25-512 partner): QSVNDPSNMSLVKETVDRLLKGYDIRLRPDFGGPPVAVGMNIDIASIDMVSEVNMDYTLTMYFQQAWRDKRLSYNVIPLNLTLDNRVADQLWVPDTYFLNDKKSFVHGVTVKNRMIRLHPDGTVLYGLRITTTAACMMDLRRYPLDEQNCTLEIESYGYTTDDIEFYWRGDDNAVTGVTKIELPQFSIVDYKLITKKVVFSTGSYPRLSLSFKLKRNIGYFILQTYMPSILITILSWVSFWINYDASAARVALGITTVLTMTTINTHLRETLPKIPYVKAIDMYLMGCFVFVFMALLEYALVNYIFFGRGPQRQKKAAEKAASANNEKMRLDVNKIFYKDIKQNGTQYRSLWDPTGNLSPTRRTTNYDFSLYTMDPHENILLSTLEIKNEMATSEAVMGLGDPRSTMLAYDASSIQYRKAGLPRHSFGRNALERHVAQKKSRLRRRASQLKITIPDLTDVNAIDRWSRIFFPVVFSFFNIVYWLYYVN
Sequence (P18507 40-475 partner): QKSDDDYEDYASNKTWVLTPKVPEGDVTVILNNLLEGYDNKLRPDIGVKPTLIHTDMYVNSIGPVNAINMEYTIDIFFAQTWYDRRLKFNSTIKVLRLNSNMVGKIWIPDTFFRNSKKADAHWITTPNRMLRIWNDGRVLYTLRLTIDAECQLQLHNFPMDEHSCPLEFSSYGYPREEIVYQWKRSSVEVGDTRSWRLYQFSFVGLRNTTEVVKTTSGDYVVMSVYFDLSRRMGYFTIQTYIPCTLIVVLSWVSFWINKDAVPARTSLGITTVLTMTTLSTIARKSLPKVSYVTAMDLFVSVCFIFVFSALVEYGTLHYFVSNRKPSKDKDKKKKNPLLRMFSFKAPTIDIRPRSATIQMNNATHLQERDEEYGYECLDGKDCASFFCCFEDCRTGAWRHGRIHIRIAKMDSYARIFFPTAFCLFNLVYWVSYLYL
observationType: IC50 (nM)

1) CC1=NN=C(c2cc3cc(Cl)ccc3s2)c2cc3oc(=O)[nH]c3cc2C1 :: 172

a = CC1=NN=C(c2cc3cccc(F)c3s2)c2cc3oc(=O)[nH]c3cc2C1
b = CC1=NN=C(c2ccc3ncccc3c2)c2cc3oc(=O)[nH]c3cc2C1
# input Decide: a or b , by lowest recorded IC50. State your choice using its label.
# output a
(a: 227 nM, b: 430 nM)
